- System: Bacillus subtilis
- measurement_description: Antibacterial activity against Bacillus subtilis ATCC 6633 after 24 hrs by MTT assay
- Type: functional
- experimental_context: ATCC 6633, 24 h
recorded_metric: MIC50 (µg/mL)

Example entries and their recorded answers appear below.
O=C1OCC(Nc2cccc(Cl)c2)=C1c1cccc(Cl)c1 ... 11.7
COc1ccc(C2=C(Nc3cc(Cl)cc(Cl)c3)COC2=O)cc1 ... 9.6
O=C1OCC(Nc2cc(Br)cc(Br)c2)=C1c1ccc(F)cc1 ... 38.6

(A) O=C1OCC(Nc2cccc(Cl)c2)=C1c1ccc(Br)cc1
(B) O=C1OCC(Nc2cccc([N+](=O)[O-])c2)=C1c1ccc(Br)cc1
(C) O=C1OCC(Nc2cc(Cl)cc(Cl)c2)=C1c1ccc(Br)cc1
Arrange these compounds by their MIC50, starting with the largest number. Your reply should list the labels following the order given in the request.
B, A, C
